Hello, the source for this data is patent USRE47150, in case you need it.

Target: T1, human tissue factor pathway inhibitor (TFPI) (human, UniProt P10646 29-304, limits assumed)
T1 construct: bought; also called hTFPI; human TFPI
T1 sequence (looked up): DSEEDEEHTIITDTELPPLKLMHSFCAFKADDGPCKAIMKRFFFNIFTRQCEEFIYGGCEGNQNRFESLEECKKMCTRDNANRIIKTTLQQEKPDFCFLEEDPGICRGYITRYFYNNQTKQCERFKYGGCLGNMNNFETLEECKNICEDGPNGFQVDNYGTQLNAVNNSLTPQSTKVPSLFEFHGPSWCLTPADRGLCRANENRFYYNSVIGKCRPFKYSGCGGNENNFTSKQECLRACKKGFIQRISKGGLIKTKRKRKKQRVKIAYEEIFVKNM
Assay: SPR, TFPI immobilized
quantity-name: pKd
Scale explanation: pKd corresponds to minus log10 of a concentration expressed in moles per litre.

Reference set (4 entries):
>>> value_measured("2A8 HC_I51D (Fab, V domains shown, also called 2A8-12) VH: QVQLVESGGGLVQPGGSLRLSCAASGFTFRSYGMSWVRQAPGKGLEWVSSDRGSSSSTYYADSVKGRFTISRDNSKNTLYLQMNSLRAEDTAVYYCARKYRYWFDYWGQGTLVTVSS VL: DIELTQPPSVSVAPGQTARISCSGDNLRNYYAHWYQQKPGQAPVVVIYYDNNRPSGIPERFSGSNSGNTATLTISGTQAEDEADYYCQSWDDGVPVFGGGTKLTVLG")
8.86
>>> value_measured("2A8 HC_K99V (Fab, V domains shown, also called 2A8-10) VH: QVQLVESGGGLVQPGGSLRLSCAASGFTFRSYGMSWVRQAPGKGLEWVSSIRGSSSSTYYADSVKGRFTISRDNSKNTLYLQMNSLRAEDTAVYYCARVYRYWFDYWGQGTLVTVSS VL: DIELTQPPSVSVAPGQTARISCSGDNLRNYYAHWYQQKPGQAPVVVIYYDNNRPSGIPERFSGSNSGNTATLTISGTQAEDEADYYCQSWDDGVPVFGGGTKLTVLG")
9.00
>>> value_measured("2A8 wild-type Fab (Fab, V domains shown, Fab with c-myc (or HA, or none) and 6xHis tag at the C-terminus of the heavy chain; also called 2A8wt; 2A8 wt) VH: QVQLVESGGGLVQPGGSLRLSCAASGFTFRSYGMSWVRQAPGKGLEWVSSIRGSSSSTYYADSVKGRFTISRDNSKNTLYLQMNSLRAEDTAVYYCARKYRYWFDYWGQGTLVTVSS VL: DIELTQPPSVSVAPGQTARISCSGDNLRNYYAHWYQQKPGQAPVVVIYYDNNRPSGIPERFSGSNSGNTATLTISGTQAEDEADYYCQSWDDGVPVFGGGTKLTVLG")
8.65
>>> value_measured("2A8 LC_D91W (Fab, V domains shown, also called 2A8-17) VH: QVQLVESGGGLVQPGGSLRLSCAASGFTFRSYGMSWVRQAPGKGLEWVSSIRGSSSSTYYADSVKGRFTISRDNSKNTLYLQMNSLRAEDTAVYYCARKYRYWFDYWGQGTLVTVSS VL: DIELTQPPSVSVAPGQTARISCSGDNLRNYYAHWYQQKPGQAPVVVIYYDNNRPSGIPERFSGSNSGNTATLTISGTQAEDEADYYCQSWWDGVPVFGGGTKLTVLG")
8.95

Could you now consider this next binder?
Problem: Recorded pKd for 2A8 HC_S31P (Fab, V domains shown, also called 2A8-2) VH: QVQLVESGGGLVQPGGSLRLSCAASGFTFRPYGMSWVRQAPGKGLEWVSSIRGSSSSTYYADSVKGRFTISRDNSKNTLYLQMNSLRAEDTAVYYCARKYRYWFDYWGQGTLVTVSS VL: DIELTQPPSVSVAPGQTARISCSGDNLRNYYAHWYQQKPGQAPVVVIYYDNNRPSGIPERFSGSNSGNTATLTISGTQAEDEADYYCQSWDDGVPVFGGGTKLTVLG , please?
Solution: 8.94
